# Tested on: cellular release of amyloid peptide 1-40
# methodSummary: Test 4: Inhibition of cellular release of amyloid peptide 1-40
# Format: cell-based
# conditionNotes: Cricetulus griseus, Chinese hamster ovary cells transfected with the gene for amyloid precursor protein, 24 hours with compound, amyloid peptide 1-40 in supernatant, read-out: Bace IC50
Structures can show the parent of a compound that is named as a salt.
I'd appreciate it if you could supply IC50 values for the items below.
Give bare numbers, in nM.

Please review the following examples before continuing.
CCN1CC(C)(c2cc(NC(=O)c3ncc(Cl)cc3Cl)ccc2F)N=C(N)C1=O (stereo not drawn) [Example 8, hydrochloride]
74
CCN1CC(C)(c2cc(NC(=O)c3ccc(C#N)cn3)ccc2F)N=C(N)C1=O (stereo not drawn) [Example 14, hydrochloride]
130
COCCN1CC(C)(c2cc(NC(=O)c3ncc(Cl)cc3Cl)ccc2F)N=C(N)C1=O (stereo not drawn) [Example 10, hydrochloride]
74

Could I get IC50 for every one of these entries?
1. CN1CC(C)(c2cc(NC(=O)c3ncc(Cl)cc3Cl)ccc2F)N=C(N)C1=O (stereo not drawn) [Example 7, hydrochloride]
2. Cn1cc(N2CC(C)(c3cc(NC(=O)c4ccc(Br)cn4)ccc3F)N=C(N)C2=O)cn1 (stereo not drawn) [Example 12, hydrochloride]
3. CN1CC(N)=NC(C)(c2cc(NC(=O)c3ccc(Br)cn3)ccc2F)C1 (stereo not drawn)
4. N#Cc1ccc(C(=O)Nc2ccc(F)c(C3(C(F)F)CNCC(N)=N3)c2)nc1 (stereo not drawn)
5. N#Cc1ccc(C(=O)Nc2ccc(F)c(C3(C(F)F)CNC(=O)C(N)=N3)c2)nc1 (stereo not drawn)
6. CN1CC(C)(c2cc(NC(=O)c3ccc(Br)cn3)ccc2F)N=C(N)C1=O (stereo not drawn) [Example 4, hydrochloride]

Reply:
1: 160; 2: 84; 3: 120; 4: 74; 5: 61; 6: 91
